Just for reference, the supplement of paper PMC10307832 is where these values come from.

Below is a list of entries, each paired with its recorded relative viability value.
Tested on: SW 1573
Assay: relative viability (nuclei count vs DMSO), 5 days (fraction); higher = more cells survive
Settings: first compound 0.01 µM

{"compound": "Cc1cn(-c2cc(NC(=O)c3ccc(C)c(Nc4nccc(-c5cccnc5)n4)c3)cc(C(F)(F)F)c2)cn1 [Nilotinib] + CS(=O)(=O)CCNCc1ccc(-c2ccc3ncnc(Nc4ccc(OCc5cccc(F)c5)c(Cl)c4)c3c2)o1 [Lapatinib] (partner 2 µM)", "relative viability": 1.17}
{"compound": "Cc1cn(-c2cc(NC(=O)c3ccc(C)c(Nc4nccc(-c5cccnc5)n4)c3)cc(C(F)(F)F)c2)cn1 [Nilotinib] + CC1(C)CCC(c2ccc(Cl)cc2)=C(CN2CCN(c3ccc(C(=O)NS(=O)(=O)c4ccc(N[C@H](CCN5CCOCC5)CSc5ccccc5)c(S(=O)(=O)C(F)(F)F)c4)cc3)CC2)C1 [Navitoclax] (partner 0.5 µM)", "relative viability": 1.14}
{"compound": "Cc1cn(-c2cc(NC(=O)c3ccc(C)c(Nc4nccc(-c5cccnc5)n4)c3)cc(C(F)(F)F)c2)cn1 [Nilotinib] + CCNC(=O)c1noc(-c2cc(C(C)C)c(O)cc2O)c1-c1ccc(CN2CCOCC2)cc1 [Luminespib] (partner 0.01 µM)", "relative viability": 0.277}
{"compound": "Cc1cn(-c2cc(NC(=O)c3ccc(C)c(Nc4nccc(-c5cccnc5)n4)c3)cc(C(F)(F)F)c2)cn1 [Nilotinib] + Nc1nc2[nH]cc(CCc3ccc(C(=O)N[C@@H](CCC(=O)O)C(=O)O)cc3)c2c(=O)[nH]1 [Pemetrexed] (partner 0.2 µM)", "relative viability": 0.91}

---

Each record here notes measured relative viability.
System: LU99A
Assay: relative viability (nuclei count vs DMSO), 5 days (fraction); higher = more cells survive
Details: first compound 0.02 µM

{"compound": "CCNC(=O)c1noc(-c2cc(C(C)C)c(O)cc2O)c1-c1ccc(CN2CCOCC2)cc1 [Luminespib] + C[C@@H](Oc1cc(-c2cnn(C3CCNCC3)c2)cnc1N)c1c(Cl)ccc(F)c1Cl [Crizotinib] (partner 1 µM)", "relative viability": 0.343}
{"compound": "CCNC(=O)c1noc(-c2cc(C(C)C)c(O)cc2O)c1-c1ccc(CN2CCOCC2)cc1 [Luminespib] + CC(C)C[C@H](NC(=O)[C@H](Cc1ccccc1)NC(=O)c1cnccn1)B(O)O [Bortezomib] (partner 0.002 µM)", "relative viability": 0.538}
{"compound": "CN1CCN(CCOc2cc(OC3CCOCC3)c3c(Nc4c(Cl)ccc5c4OCO5)ncnc3c2)CC1 [Saracatinib] + CC(C)C[C@H](NC(=O)[C@H](Cc1ccccc1)NC(=O)c1cnccn1)B(O)O [Bortezomib] (partner 0.002 µM)", "relative viability": 1.1}
{"compound": "CCNC(=O)c1noc(-c2cc(C(C)C)c(O)cc2O)c1-c1ccc(CN2CCOCC2)cc1 [Luminespib] + CS(=O)(=O)N1CCN(Cc2cc3nc(-c4cccc5[nH]ncc45)nc(N4CCOCC4)c3s2)CC1 [Pictilisib] (partner 1 µM)", "relative viability": 0.226}
{"compound": "CN1CCN(CCOc2cc(OC3CCOCC3)c3c(Nc4c(Cl)ccc5c4OCO5)ncnc3c2)CC1 [Saracatinib] + Cc1cc(Nc2cc(N3CCN(C)CC3)nc(Sc3ccc(NC(=O)C4CC4)cc3)n2)n[nH]1 [Tozasertib] (partner 0.1 µM)", "relative viability": 0.26}
{"compound": "CN1CCN(CCOc2cc(OC3CCOCC3)c3c(Nc4c(Cl)ccc5c4OCO5)ncnc3c2)CC1 [Saracatinib] + O=C(CCCCCCC(=O)Nc1ccccc1)NO [Vorinostat] (partner 1 µM)", "relative viability": 0.445}
{"compound": "CN1CCN(CCOc2cc(OC3CCOCC3)c3c(Nc4c(Cl)ccc5c4OCO5)ncnc3c2)CC1 [Saracatinib] + NC(=O)Nc1cc(-c2cccc(F)c2)sc1C(=O)N[C@H]1CCCNC1 [AZD7762] (partner 0.2 µM)", "relative viability": 0.374}
{"compound": "CN1CCN(CCOc2cc(OC3CCOCC3)c3c(Nc4c(Cl)ccc5c4OCO5)ncnc3c2)CC1 [Saracatinib] + O=C(c1cc(Cc2n[nH]c(=O)c3ccccc23)ccc1F)N1CCN(C(=O)C2CC2)CC1 [Olaparib] (partner 8 µM)", "relative viability": 0.278}
